Sourced from ChEMBL document CHEMBL1137895

# targetUnderTest: UniProtKB P21917
# protocol: In vitro ability to inhibit [3H]6b binding to human Dopamine receptor D4.4
recordedEndpoint: log10(Ki) (log10 of the value in nM)

{"columns": ["structure", "log10(Ki)"],
 "data": [
  ["Cc1cccc(NC(=O)CN2CCN(c3ccc(F)cc3)CC2)c1", 1.96],
  ["Cc1cc(NC(=O)CN2CCN(c3ccc(Br)cc3C#N)CC2)ccc1Br", 1.15],
  ["COc1ccc(N2CCN(CC(=O)Nc3cccc(C)c3)CC2)cc1", 1.95],
  ["COc1cccc(N2CCN(CC(=O)Nc3cccc(C)c3)CC2)c1", 1.59],
  ["COc1ccccc1N1CCN(CC(=O)Nc2cccc(C)c2)CC1", 0.26]
]}

---

# targetUnderTest: D(4) dopamine receptor (Homo sapiens, UniProt P21917)
# protocol: In vitro ability to inhibit [3H]spiperone binding to human Dopamine receptor D4.4
pKi: −log10 of the molar value.
We begin with a simple list: items and their reported pKi.
recordedEndpoint: pKi

{"columns": ["structure", "targetUnderTest", "recordedMeasurement"],
 "data": [
  ["Cc1cccc(NC(=O)CN2CCN(c3ccc(F)cc3)CC2)c1", "D(4) dopamine receptor (Homo sapiens, UniProt P21917)", 7.21],
  ["COc1cccc(N2CCN(CC(=O)Nc3cccc(C)c3)CC2)c1", "D(4) dopamine receptor (Homo sapiens, UniProt P21917)", 7.34],
  ["COc1ccc(N2CCN(CC(=O)Nc3cccc(C)c3)CC2)cc1", "D(4) dopamine receptor (Homo sapiens, UniProt P21917)", 7.00],
  ["Cc1cc(NC(=O)CN2CCN(c3ccc(Br)cc3C#N)CC2)ccc1Br", "D(4) dopamine receptor (Homo sapiens, UniProt P21917)", 7.27]
]}

---

# targetUnderTest: UniProt:P21917
# protocol: Agonist activity was calculated in calcium flux assay using HEK293 cells co-transfected with human Dopamine receptor D4.4 and Galphaqo5
Catalogue of molecules with associated EC50
recordedEndpoint: EC50

{"columns": ["structure", "recordedEndpoint", "recordedMeasurement"],
 "data": [
  ["COc1ccccc1N1CCN(CC(=O)Nc2cccc(C)c2)CC1", "EC50", "0.0268 µM"],
  ["COc1cccc(N2CCN(CC(=O)Nc3cccc(C)c3)CC2)c1", "EC50", "> 10 µM"],
  ["Cc1cc(NC(=O)CN2CCN(c3ccc(Br)cc3C#N)CC2)ccc1Br", "EC50", "> 10 µM"],
  ["Cc1cccc(NC(=O)CN2CCN(c3ccc(F)cc3)CC2)c1", "EC50", "> 10 µM"],
  ["COc1ccc(N2CCN(CC(=O)Nc3cccc(C)c3)CC2)cc1", "EC50", "> 10 µM"]
]}

---

# targetUnderTest: D(4) dopamine receptor (Homo sapiens)
# Sequence (P21917 whole entry): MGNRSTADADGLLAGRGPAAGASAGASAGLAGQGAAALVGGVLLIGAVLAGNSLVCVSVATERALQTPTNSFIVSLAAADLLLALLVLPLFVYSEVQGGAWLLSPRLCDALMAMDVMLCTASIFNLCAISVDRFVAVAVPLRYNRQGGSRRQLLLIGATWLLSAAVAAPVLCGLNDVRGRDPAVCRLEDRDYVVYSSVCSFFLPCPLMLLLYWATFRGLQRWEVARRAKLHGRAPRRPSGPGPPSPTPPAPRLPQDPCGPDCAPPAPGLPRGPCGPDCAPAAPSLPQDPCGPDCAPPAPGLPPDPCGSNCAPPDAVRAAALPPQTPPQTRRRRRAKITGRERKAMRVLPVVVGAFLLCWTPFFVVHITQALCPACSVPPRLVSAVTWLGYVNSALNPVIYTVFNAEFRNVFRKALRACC
# protocol: In vitro ability to inhibit [3H]spiperone binding to human Dopamine receptor D4.4 allele
pKi: −log10 of the molar value.

{"columns": ["structure", "pKi"],
 "data": [
  ["COc1ccccc1N1CCN(CC(=O)Nc2cccc(C)c2)CC1", 9.15]
]}
